Source of measurements: patent US9481654B2

# Lookup of reported IC50 keyed by entry
# Test system: IL-4 stimulated CD23 upregulation in human Ramos B cells (JAK-1/JAK-3, Stat-6)
# MEASUREMENT_NOTES: Assay for Ramos B-Cell Line Stimulated with IL-4 (CD23 upregulation, FACS)
# Format: cell-based
# ASSAY_CONDITIONS: Table III Example 3
The number alone won't do; follow it with the unit.

SMILES_INPUT	IC50
CCCCCC(=O)NS(=O)(=O)c1cccc(Nc2ncc(C)c(Nc3cccc(CN(C(=O)CCCCC)S(=O)(=O)C4CC4)c3)n2)c1	3.8 µM
Cc1ccc(Nc2ncc(C)c(Nc3cccc(CNS(=O)(=O)C4CC4)c3)n2)cc1S(N)(=O)=O	0.0685 µM
NS(=O)(=O)c1cccc(Nc2ncc(F)c(Nc3ccc(CNS(=O)(=O)c4cccs4)cc3)n2)c1	0.0408 µM

# evaluate next
Looking for the measured IC50 of CCCNS(=O)(=O)c1cc(Nc2ncc(C)c(Nc3cccc(CNS(=O)(=O)C4CC4)c3)n2)ccc1C , can you help?
0.132 µM
